Where do the numbers come from? From paper PMC9340770.

target: ADORA2A (Homo sapiens, UniProt P29274); test: Safetyscan Calcium Flux; settings: antagonist mode, read-out: RC50 (IC50) ADORA2A Antagonist
Sequence (P29274 whole entry): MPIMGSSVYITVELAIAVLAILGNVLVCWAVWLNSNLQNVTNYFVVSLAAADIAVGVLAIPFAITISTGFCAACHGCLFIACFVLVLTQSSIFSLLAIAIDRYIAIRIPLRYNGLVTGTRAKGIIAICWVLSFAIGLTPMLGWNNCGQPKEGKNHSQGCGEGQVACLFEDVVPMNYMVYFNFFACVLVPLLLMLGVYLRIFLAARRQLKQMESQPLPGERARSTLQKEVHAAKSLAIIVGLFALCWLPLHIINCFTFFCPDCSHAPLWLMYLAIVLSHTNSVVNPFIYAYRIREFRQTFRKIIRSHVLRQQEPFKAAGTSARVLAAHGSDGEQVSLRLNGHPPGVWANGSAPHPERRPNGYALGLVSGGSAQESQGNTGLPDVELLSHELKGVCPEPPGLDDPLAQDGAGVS
RESULT TYPE: IC50

Asked: // query IC50 value for entry "Cc1c(C#N)cccc1[C@@H](C)Nc1nnc(C)c2cnc(N3CCOCC3)cc12"
Given back: > 10 µM

* * *

target: CAV1.2 (Homo sapiens, UniProt Q13936); assay: Safetyscan Ion Channel; settings: blocker mode, read-out: RC50 (IC50) CAV1.2 Blocker
Sequence (Q13936 whole entry): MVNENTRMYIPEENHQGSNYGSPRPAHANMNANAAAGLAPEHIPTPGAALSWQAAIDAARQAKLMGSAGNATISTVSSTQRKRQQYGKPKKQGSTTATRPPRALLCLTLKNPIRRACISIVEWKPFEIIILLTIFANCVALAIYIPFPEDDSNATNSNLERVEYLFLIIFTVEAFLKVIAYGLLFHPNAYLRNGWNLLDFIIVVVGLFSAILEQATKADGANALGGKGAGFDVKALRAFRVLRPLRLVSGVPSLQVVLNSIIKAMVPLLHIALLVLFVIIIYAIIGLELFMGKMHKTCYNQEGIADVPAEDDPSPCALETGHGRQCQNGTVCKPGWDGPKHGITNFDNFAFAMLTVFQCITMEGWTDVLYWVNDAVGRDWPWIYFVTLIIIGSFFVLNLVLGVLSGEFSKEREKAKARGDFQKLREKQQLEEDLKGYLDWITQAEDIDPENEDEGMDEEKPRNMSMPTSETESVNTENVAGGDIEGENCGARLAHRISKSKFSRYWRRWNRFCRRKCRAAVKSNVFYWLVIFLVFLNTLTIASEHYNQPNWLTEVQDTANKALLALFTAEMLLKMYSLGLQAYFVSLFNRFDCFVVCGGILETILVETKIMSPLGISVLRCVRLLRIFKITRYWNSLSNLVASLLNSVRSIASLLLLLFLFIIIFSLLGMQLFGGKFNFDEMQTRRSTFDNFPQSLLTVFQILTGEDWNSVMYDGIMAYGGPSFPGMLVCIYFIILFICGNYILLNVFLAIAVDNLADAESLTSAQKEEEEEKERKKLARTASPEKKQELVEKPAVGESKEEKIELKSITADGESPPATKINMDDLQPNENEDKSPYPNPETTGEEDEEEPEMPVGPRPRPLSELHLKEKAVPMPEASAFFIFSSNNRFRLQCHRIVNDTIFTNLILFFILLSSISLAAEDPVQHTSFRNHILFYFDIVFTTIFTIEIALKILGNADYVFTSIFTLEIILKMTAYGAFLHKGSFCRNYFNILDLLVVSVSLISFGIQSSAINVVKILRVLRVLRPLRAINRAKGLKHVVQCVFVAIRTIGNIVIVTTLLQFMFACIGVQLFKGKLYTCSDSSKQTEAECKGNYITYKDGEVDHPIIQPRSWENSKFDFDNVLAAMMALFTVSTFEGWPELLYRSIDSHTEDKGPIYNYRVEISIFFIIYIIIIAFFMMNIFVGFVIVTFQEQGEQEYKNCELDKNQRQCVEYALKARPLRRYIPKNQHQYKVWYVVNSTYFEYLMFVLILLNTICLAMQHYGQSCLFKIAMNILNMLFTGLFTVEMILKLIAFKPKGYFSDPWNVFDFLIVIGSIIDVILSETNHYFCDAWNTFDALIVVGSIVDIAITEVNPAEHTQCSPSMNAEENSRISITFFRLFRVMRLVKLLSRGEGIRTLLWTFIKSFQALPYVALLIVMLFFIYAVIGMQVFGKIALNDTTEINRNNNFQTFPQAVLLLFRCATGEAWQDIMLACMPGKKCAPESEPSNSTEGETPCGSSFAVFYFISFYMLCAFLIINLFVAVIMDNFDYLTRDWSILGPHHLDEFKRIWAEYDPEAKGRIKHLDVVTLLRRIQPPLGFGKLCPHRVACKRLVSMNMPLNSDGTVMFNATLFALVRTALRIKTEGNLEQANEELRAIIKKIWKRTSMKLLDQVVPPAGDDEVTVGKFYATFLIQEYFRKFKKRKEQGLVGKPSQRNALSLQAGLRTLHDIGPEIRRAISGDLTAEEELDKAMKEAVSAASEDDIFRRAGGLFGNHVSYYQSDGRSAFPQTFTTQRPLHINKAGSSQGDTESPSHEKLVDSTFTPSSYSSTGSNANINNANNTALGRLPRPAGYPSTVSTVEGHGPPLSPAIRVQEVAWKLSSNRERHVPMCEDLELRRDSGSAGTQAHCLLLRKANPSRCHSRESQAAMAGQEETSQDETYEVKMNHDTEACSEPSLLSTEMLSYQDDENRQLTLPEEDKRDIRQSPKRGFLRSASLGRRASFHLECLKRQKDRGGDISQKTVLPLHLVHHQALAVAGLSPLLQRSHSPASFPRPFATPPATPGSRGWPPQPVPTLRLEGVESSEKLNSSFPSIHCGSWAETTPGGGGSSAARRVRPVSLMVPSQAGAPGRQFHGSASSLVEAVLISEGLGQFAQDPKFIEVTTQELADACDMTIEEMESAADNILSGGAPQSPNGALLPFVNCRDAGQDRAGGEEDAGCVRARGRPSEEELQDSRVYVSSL
Sequence (Q08289 whole entry partner): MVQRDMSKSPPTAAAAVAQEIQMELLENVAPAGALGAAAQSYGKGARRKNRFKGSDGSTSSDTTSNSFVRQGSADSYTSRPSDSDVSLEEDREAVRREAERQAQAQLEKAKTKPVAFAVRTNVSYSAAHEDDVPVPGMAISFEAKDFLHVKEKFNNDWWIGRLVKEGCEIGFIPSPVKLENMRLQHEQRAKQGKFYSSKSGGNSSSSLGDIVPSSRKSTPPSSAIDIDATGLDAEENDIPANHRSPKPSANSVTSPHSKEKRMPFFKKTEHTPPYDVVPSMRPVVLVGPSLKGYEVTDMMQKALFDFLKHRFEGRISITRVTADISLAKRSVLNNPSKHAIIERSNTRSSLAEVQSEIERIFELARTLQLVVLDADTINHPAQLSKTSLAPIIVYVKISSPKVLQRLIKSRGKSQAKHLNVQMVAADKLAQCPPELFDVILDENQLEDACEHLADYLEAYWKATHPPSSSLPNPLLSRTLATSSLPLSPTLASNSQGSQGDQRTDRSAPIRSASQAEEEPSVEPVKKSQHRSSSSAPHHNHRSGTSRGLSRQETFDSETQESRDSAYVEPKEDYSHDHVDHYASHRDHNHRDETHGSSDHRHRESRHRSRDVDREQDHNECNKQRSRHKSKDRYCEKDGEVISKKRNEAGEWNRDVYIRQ
Sequence (P54289 25-956 partner limits assumed): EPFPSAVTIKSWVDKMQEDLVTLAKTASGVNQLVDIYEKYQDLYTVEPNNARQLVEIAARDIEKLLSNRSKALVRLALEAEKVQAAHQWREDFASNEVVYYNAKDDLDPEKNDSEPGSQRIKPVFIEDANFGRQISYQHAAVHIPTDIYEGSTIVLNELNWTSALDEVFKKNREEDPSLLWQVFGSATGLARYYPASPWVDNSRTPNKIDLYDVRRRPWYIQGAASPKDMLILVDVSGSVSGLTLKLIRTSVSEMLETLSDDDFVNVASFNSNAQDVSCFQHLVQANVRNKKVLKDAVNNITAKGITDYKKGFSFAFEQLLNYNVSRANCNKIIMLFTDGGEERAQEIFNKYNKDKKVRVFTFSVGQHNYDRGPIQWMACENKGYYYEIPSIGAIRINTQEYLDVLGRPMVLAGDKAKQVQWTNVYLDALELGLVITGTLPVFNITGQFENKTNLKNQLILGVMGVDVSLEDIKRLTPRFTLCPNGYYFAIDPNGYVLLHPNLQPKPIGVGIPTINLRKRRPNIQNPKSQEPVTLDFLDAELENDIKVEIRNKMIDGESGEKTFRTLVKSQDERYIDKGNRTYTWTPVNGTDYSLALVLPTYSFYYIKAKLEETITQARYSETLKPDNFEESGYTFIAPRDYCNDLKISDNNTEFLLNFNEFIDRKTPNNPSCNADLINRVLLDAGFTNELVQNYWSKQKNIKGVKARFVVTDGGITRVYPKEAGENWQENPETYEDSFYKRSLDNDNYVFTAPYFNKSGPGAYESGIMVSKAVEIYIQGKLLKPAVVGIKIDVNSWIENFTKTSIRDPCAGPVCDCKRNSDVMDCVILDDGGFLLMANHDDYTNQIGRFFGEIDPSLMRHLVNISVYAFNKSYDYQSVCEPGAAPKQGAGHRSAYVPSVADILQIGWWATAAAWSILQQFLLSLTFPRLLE
Sequence (P54289 957-1103 partner limits assumed): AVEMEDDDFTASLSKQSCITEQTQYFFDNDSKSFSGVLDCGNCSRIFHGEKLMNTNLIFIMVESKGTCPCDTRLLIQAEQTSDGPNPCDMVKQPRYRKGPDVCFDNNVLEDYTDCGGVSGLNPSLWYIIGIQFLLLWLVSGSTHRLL
pIC50: −log10 of the molar value.
RESULT TYPE: pIC50

Asked: // query pIC50 value for entry "Cc1c(C#N)cccc1[C@@H](C)Nc1nnc(C)c2cnc(N3CCOCC3)cc12"
Given back: < 5.00

* * *

molecular target: UniProt P04150; assay: Safetyscan NHR Protein Interaction; details: agonist mode, read-out: RC50 (EC50) GR Agonist
pEC50: −log10 of the molar value.
RESULT TYPE: pEC50

Asked: // query pEC50 value for entry "Cc1c(C#N)cccc1[C@@H](C)Nc1nnc(C)c2cnc(N3CCOCC3)cc12"
Given back: < 5.00

* * *

Target: COX2 (Homo sapiens, UniProt P35354)
Sequence (P35354 18-604): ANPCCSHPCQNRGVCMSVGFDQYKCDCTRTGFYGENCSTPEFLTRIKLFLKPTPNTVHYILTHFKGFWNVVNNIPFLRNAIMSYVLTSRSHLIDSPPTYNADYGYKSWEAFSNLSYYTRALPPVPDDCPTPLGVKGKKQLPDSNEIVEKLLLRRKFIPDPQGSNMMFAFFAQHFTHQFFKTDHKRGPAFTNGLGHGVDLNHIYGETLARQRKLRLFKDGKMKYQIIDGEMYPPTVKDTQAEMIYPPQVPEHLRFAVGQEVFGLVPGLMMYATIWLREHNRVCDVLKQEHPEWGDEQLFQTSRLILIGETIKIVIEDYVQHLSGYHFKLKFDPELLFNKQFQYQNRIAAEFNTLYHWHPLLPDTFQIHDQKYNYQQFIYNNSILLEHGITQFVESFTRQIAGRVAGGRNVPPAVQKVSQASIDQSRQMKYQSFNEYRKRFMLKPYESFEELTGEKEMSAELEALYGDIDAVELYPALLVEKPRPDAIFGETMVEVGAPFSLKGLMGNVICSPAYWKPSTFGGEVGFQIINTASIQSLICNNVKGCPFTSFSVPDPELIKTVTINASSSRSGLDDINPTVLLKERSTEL
pIC50: −log10 of the molar value.
RESULT TYPE: pIC50

Asked: // query pIC50 value for entry Cc1c(C#N)cccc1[C@@H](C)Nc1nnc(C)c2cnc(N3CCOCC3)cc12 [Compound 32]
Given back: < 5.00

* * *

target: AVPR1A (Homo sapiens); assay: Safetyscan Calcium Flux; details: agonist mode, read-out: RC50 (EC50) AVPR1A Agonist
RESULT TYPE: EC50

Asked: Which measured EC50 belongs to "Cc1c(C#N)cccc1[C@@H](C)Nc1nnc(C)c2cnc(N3CCOCC3)cc12" , tested on AVPR1A (Homo sapiens)?
Given back: > 10 µM

* * *

molecular target: CCKAR (Homo sapiens); assay: Safetyscan Calcium Flux; settings: agonist mode, read-out: RC50 (EC50) CCKAR Agonist
Sequence (P32238 whole entry): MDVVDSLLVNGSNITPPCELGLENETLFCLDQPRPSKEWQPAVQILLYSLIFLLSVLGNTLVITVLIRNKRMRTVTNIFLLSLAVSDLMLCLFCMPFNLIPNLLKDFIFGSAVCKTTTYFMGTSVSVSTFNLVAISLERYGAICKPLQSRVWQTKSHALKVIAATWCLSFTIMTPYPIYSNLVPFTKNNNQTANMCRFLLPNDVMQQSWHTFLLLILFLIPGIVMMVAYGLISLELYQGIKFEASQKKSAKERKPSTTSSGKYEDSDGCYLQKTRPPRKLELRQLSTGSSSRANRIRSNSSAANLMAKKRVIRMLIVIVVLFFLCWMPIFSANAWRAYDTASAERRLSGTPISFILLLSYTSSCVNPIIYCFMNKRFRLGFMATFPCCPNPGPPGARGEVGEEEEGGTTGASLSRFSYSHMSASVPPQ
pEC50: −log10 of the molar value.
RESULT TYPE: pEC50

Asked: // query pEC50 value for entry Cc1c(C#N)cccc1[C@@H](C)Nc1nnc(C)c2cnc(N3CCOCC3)cc12 [Compound 32]
Given back: < 5.00
